Values compiled from the supplement of paper PMC7156485.

Tested on: TDF
Experiment notes: cell number relative to DMSO (% of DMSO); higher = more cells (less growth inhibition / toxicity)
Experimental setup: concentration: 10 µM; 24 h
Measured quantity: cell number
Output spec: single numeric token, no unit.

Compound	cell number
COc1cc(=O)oc(C=CC=CC=CC(C)=CC2(C)OC(C)C(C)(O)C2O)c1C (stereo not drawn) [Citreoviridin]	38.6
CCCCCC=CC=CC(CCCCCCCC(=O)O)OO (stereo not drawn)	94
CC(C)(C)C1(O)CC2OC(=O)CC23C(=O)OC2OC(=O)C(O)C231 (stereo not drawn) [Bilobalide]	109
CCC(C(N)=O)N1CCCC1=O (stereo not drawn) [Levetiracetam]	105
COc1cc(C2c3cc4c(cc3C(O)C3COC(=O)C23)OCO4)cc(OC)c1OC (stereo not drawn) [Podophyllotoxin]	10.1
COc1ccc(OC)c(C(O)C(C)N)c1.Cl (stereo not drawn) [Methoxamine hydrochloride]	106
NC1CC1c1ccccc1 (stereo not drawn) [Tranylcypromine]	117
NC(=O)CN1CCCC1=O [Piracetam]	99.2

Let us move to another entry and its cell number.
The reported cell number of the compound CCN1CC2(COC)C(O)CC(OC)C34C5CC6(O)C(OC)C(O)C(OC(C)=O)(C5C6OC(=O)c5ccccc5)C(C(OC)C23)C14 (stereo not drawn) [Aconitine] was 97.3

###

Tested on: TDF
Experiment notes: H1.0 immunofluorescence intensity relative to DMSO (% of DMSO); higher = stronger H1.0 induction, active = 120 or more
Experimental setup: concentration: 10 µM; 24 h
Attribute: H1.0 immunofluorescence intensity
Output spec: single numeric token, no unit.

# example entries with known answers
>>> df
                                   compound                  measured_quantity  observed_result
0  CC1OC(C[N+](C)(C)C)CS1.[I-] (centres undefined) [OXA-22 iodide]  H1.0 immunofluorescence intensity             97.2
1  COc1cc(C(=O)OC2CC3CCC(C2)N3C)ccc1O (centres undefined)  H1.0 immunofluorescence intensity             98.2
2   CCCN1CCOC2c3cc(O)ccc3OCC21.Cl (racemic)  H1.0 immunofluorescence intensity             88.1
3  C#CCNC(C)Cc1ccccc1.Cl (stereo not drawn) [R-(-)-Desmethyldeprenyl hydrochloride]  H1.0 immunofluorescence intensity             97.2
4  CC(N)C(=O)OC(C)(C)Cc1ccc(Cl)cc1.Cl (centres undefined) [Alaproclate hydrochloride]  H1.0 immunofluorescence intensity             88.2
5  NCCN(CCN)N(O)N=O [1,1-bis(2-aminoethyl)-2-hydroxy-3-oxotriazane]  H1.0 immunofluorescence intensity             93.1
6  CCCCCCCCCCCCCCCCOCC(COP(=O)([O-])OCC[N+](C)(C)C)OC(C)=O (centres undefined)  H1.0 immunofluorescence intensity             99.6
7  COC1=CC2C3Cc4ccc(OC)c(O)c4C2(CCN3C)CC1=O (centres undefined)  H1.0 immunofluorescence intensity             94.1

The reported H1.0 immunofluorescence intensity of the compound CS(=N)(=O)CCC(N)C(=O)O (centres undefined) was 92.5

###

System: HCC1569
Experiment notes: H1.0 immunofluorescence intensity relative to DMSO (% of DMSO); higher = stronger H1.0 induction, active = 140 or more
Experimental setup: concentration: 10 µM; 24 h
Measured quantity: H1.0 immunofluorescence intensity
Output spec: single numeric token, no unit.

# example entries with known answers
Compound	H1.0 immunofluorescence intensity
CCC1CN2CCc3cc(OC)c(OC)cc3C2CC1CC1NCCc2cc(OC)c(OC)cc21.Cl.Cl (configuration not stated) [Emetine dihydrochloride hydrate]	99
CNC(=O)Oc1ccc2c(c1)C1(C)CCN(C)C1N2C.CNC(=O)Oc1ccc2c(c1)C1(C)CCN(C)C1N2C.O=S(=O)(O)O (configuration not stated) [Physostigmine sulfate]	106
Cc1cccc(C)c1NC1=NCCCS1 [Xylazine]	106
NC(N)=Nc1ccc2[nH]c3c(c2c1)CC1(O)C2Cc4ccc(O)c5c4C1(CCN2CC1CC1)C3O5.O=C(O)C(F)(F)F.O=C(O)C(F)(F)F (configuration not stated) [Guanidinyl-naltrindole di-trifluoroacetate]	115

The reported H1.0 immunofluorescence intensity of the compound CP(=O)([O-])C1=CC[NH2+]CC1 was 102

The reported H1.0 immunofluorescence intensity of the compound Br.CCC1CN2CCc3cc(OC)c(OC)cc3C2CC1CC1NCCc2cc(O)c(OC)cc21 (configuration not stated) was 104

The reported H1.0 immunofluorescence intensity of the compound CCCCCC=CCC=CCC=CCC=CCCCC(=O)NC(C)CO [(R)-Methandamide] was 100
